# SYSTEM: Kappa-type opioid receptor (Homo sapiens, UniProt P41145)
# Sequence (P41145 whole entry): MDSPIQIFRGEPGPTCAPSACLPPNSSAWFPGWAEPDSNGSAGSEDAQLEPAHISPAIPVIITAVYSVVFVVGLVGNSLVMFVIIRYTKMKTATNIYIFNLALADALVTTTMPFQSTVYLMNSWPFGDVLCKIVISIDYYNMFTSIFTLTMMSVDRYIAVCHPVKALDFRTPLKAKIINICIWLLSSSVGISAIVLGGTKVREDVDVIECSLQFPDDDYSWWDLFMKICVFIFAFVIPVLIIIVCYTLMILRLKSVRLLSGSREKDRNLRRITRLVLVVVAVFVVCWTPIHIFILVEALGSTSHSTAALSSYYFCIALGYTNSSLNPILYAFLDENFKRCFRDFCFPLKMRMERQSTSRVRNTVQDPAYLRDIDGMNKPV
pKi: −log10 of the molar value.
Lab note: compare pKi against 7. Equal or greater, write rule met. Smaller, write rule not met.

- COMPOUND: "CN(C)CC1CN(C(=O)Cc2ccc(Cl)cc2)CCC1(O)c1cccc(O)c1 (stereo not given)"
  LABEL CLASS: "rule met"
- COMPOUND: "COc1cccc(C2(O)CCN(C(=O)CCc3cccc(C(F)(F)F)c3)CC2CN(C)C)c1 (stereo not given)"
  LABEL CLASS: "rule not met"
- COMPOUND: "COc1cccc(C2(O)CCN(CCc3cccc(C(F)(F)F)c3)CC2CN(C)C)c1 (stereo not given)"
  LABEL CLASS: "rule not met"
- COMPOUND: "CN(C)CC1CN(C(=O)CCc2ccccc2)CCC1(O)c1cccc(O)c1 (stereo not given)"
  LABEL CLASS: "rule not met"
- COMPOUND: "CN(C)CC1CN(C(=O)Cc2cccc(Cl)c2)CCC1(O)c1cccc(O)c1 (stereo not given)"
  LABEL CLASS: "rule met"
- COMPOUND: "Cc1ccccc1CC(=O)N1CCC(O)(c2cccc(O)c2)C(CN(C)C)C1 (stereo not given)"
  LABEL CLASS: "rule not met"
- COMPOUND: "CN(C)CC1CN(C(=O)Cc2ccccc2OC(F)(F)F)CCC1(O)c1cccc(O)c1 (stereo not given)"
  LABEL CLASS: "rule not met"

###

# SYSTEM: Delta-type opioid receptor (Homo sapiens, UniProt P41143)
# Sequence (P41143 whole entry): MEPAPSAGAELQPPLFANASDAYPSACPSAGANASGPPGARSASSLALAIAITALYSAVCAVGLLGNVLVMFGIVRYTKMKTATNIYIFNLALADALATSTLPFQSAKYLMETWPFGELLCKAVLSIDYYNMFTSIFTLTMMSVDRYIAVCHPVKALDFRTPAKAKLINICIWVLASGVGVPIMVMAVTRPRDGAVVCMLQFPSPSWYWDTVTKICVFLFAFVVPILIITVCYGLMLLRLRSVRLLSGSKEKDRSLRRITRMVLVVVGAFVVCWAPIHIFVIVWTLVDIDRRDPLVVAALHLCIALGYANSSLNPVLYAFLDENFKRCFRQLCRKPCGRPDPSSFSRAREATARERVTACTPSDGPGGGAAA
# PROCEDURE DETAILS: Displacement of [3H]-DPDPE from human DOR expressed in CHO cell membranes measured after 2 hrs by microbeta scintillation counting method
Ki strictly under 100 nM means TRUE; at 100 nM or over means FALSE.

- COMPOUND: "COc1cccc(C2(O)CCN(C(=O)Cc3ccc4ccccc4c3)CC2CN(C)C)c1 (stereo unspecified)"
  LABEL CLASS: "FALSE"
- COMPOUND: "CN(C)CC1CN(C(=O)CCc2ccccc2)CCC1(O)c1cccc(O)c1 (stereo unspecified)"
  LABEL CLASS: "FALSE"
- COMPOUND: "Cc1ccccc1CC(=O)N1CCC(O)(c2cccc(O)c2)C(CN(C)C)C1 (stereo unspecified)"
  LABEL CLASS: "FALSE"
- COMPOUND: "COc1cccc(C2(O)CCN(C(=O)Cc3cccc([N+](=O)[O-])c3)CC2CN(C)C)c1 (stereo unspecified)"
  LABEL CLASS: "FALSE"
- COMPOUND: "CN(C)CC1CN(C(=O)Cc2cc(F)c(F)cc2F)CCC1(O)c1cccc(O)c1 (stereo unspecified)"
  LABEL CLASS: "FALSE"
- COMPOUND: "COc1cccc(C2(O)CCN(C(=O)CCc3cccc(C(F)(F)F)c3)CC2CN(C)C)c1 (stereo unspecified)"
  LABEL CLASS: "FALSE"
- COMPOUND: "CN(C)CC1CN(C(=O)Cc2cccc(OC(F)(F)F)c2)CCC1(O)c1cccc(O)c1 (stereo unspecified)"
  LABEL CLASS: "TRUE"
- COMPOUND: "CN(C)CC1CN(C(=O)Cc2ccccc2OC(F)(F)F)CCC1(O)c1cccc(O)c1 (stereo unspecified)"
  LABEL CLASS: "TRUE"
- COMPOUND: "CN(C)CC1CN(C(=O)Cc2ccccc2F)CCC1(O)c1cccc(O)c1 (stereo unspecified)"
  LABEL CLASS: "FALSE"
- COMPOUND: "CN(C)CC1CN(C(=O)Cc2cccc(F)c2)CCC1(O)c1cccc(O)c1 (stereo unspecified)"
  LABEL CLASS: "FALSE"
- COMPOUND: "CN(C)CC1CN(C(=O)CCc2ccccc2C(F)(F)F)CCC1(O)c1cccc(O)c1 (stereo unspecified)"
  LABEL CLASS: "FALSE"
- COMPOUND: "CN(C)CC1CN(C(=O)Cc2ccc(OC(F)(F)F)cc2)CCC1(O)c1cccc(O)c1 (stereo unspecified)"
  LABEL CLASS: "FALSE"
- COMPOUND: "CN(C)CC1CN(C(=O)Cc2cccc(Cl)c2)CCC1(O)c1cccc(O)c1 (stereo unspecified)"
  LABEL CLASS: "TRUE"
- COMPOUND: "COc1cccc(C2(O)CCN(CCc3cccc(C(F)(F)F)c3)CC2CN(C)C)c1 (stereo unspecified)"
  LABEL CLASS: "FALSE"
- COMPOUND: "CN(C)CC1CN(C(=O)CCc2cccc(C(F)(F)F)c2)CCC1(O)c1cccc(O)c1 (stereo unspecified)"
  LABEL CLASS: "TRUE"
- COMPOUND: "CN(C)CC1CN(C(=O)Cc2ccccc2)CCC1(O)c1cccc(O)c1 (stereo unspecified)"
  LABEL CLASS: "FALSE"

###

Below, each entry is listed with its recorded Emax.
# SYSTEM: Mu-type opioid receptor (Homo sapiens)
# Sequence (P35372 whole entry): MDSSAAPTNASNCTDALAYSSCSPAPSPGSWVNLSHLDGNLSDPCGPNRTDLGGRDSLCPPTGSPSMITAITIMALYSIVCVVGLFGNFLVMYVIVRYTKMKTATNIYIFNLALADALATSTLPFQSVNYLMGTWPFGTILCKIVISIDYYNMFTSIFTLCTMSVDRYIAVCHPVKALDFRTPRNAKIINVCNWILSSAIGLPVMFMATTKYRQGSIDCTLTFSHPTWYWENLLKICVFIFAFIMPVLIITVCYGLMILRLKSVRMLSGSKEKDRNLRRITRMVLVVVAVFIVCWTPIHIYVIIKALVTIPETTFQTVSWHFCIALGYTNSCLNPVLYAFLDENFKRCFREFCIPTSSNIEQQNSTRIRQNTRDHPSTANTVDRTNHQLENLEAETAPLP
# PROCEDURE DETAILS: Agonist activity at MOR (unknown origin) expressed in CHO cell membranes assessed as stimulation of [35S]GTPgammaS binding measured after 60 mins by liquid scintillation counting analysis relative to control
# CONDITION CONTEXT: filed as agonist
MEASURE: Emax (%)

- COMPOUND: "CN(C)C[C@H]1CN(C(=O)Cc2cc(F)c(F)cc2F)CC[C@]1(O)c1cccc(O)c1"
  ENDPOINT RESULT: 174
- COMPOUND: "CN(C)C[C@@H]1CN(C(=O)Cc2cc(F)c(F)cc2F)CC[C@@]1(O)c1cccc(O)c1"
  ENDPOINT RESULT: 238
- COMPOUND: "CN(C)CC1CN(C(=O)Cc2cccc(Cl)c2)CCC1(O)c1cccc(O)c1 (stereo not given)"
  ENDPOINT RESULT: 218
- COMPOUND: "CN(C)CC1CN(C(=O)Cc2ccccc2Cl)CCC1(O)c1cccc(O)c1 (stereo not given)"
  ENDPOINT RESULT: 179
- COMPOUND: "CN(C)CC1CN(C(=O)Cc2ccc(F)cc2)CCC1(O)c1cccc(O)c1 (stereo not given)"
  ENDPOINT RESULT: 208
- COMPOUND: "CN(C)CC1CN(C(=O)Cc2ccc(Cl)cc2)CCC1(O)c1cccc(O)c1 (stereo not given)"
  ENDPOINT RESULT: 207
- COMPOUND: "CN(C)CC1CN(C(=O)CCc2cccc(C(F)(F)F)c2)CCC1(O)c1cccc(O)c1 (stereo not given)"
  ENDPOINT RESULT: 220
- COMPOUND: "CN(C)CC1CN(C(=O)Cc2cc(F)c(F)cc2F)CCC1(O)c1cccc(O)c1 (stereo not given)"
  ENDPOINT RESULT: 213
- COMPOUND: "Cc1ccc(CC(=O)N2CCC(O)(c3cccc(O)c3)C(CN(C)C)C2)cc1 (stereo not given)"
  ENDPOINT RESULT: 178
- COMPOUND: "CN(C)CC1CN(CCc2cccc(C(F)(F)F)c2)CCC1(O)c1cccc(O)c1 (stereo not given)"
  ENDPOINT RESULT: 206

###

# SYSTEM: UniProtKB P42866
# Sequence (P42866 whole entry): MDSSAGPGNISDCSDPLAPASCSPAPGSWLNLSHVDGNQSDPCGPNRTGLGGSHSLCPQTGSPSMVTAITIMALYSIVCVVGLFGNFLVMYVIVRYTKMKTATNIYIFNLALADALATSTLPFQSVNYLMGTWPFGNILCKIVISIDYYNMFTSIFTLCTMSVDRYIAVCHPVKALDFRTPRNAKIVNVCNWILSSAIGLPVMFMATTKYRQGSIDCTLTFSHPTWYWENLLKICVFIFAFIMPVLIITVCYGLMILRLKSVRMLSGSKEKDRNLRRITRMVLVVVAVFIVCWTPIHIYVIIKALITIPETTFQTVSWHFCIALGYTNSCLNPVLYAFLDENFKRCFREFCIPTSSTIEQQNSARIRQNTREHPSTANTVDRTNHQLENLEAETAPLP
Ki strictly under 20 nM means 1; at 20 nM or over means -1.

- COMPOUND: "Cc1ccccc1CC(=O)N1CCC(O)(c2cccc(O)c2)C(CN(C)C)C1 (stereo not given)"
  SYSTEM: "UniProtKB P42866"
  LABEL CLASS: 1
- COMPOUND: "Cc1ccc(CC(=O)N2CCC(O)(c3cccc(O)c3)C(CN(C)C)C2)cc1 (stereo not given)"
  SYSTEM: "UniProtKB P42866"
  LABEL CLASS: 1
- COMPOUND: "CN(C)CC1CN(C(=O)CCc2ccccc2)CCC1(O)c1cccc(O)c1 (stereo not given)"
  SYSTEM: "UniProtKB P42866"
  LABEL CLASS: 1
- COMPOUND: "CN(C)CC1CN(C(=O)CCc2ccccc2C(F)(F)F)CCC1(O)c1cccc(O)c1 (stereo not given)"
  SYSTEM: "UniProtKB P42866"
  LABEL CLASS: 1
- COMPOUND: "CN(C)CC1CN(C(=O)Cc2ccccc2Cl)CCC1(O)c1cccc(O)c1 (stereo not given)"
  SYSTEM: "UniProtKB P42866"
  LABEL CLASS: 1
- COMPOUND: "COc1cccc(C2(O)CCN(C(=O)C(C)(C)c3ccccc3)CC2CN(C)C)c1 (stereo not given)"
  SYSTEM: "UniProtKB P42866"
  LABEL CLASS: -1
- COMPOUND: "CN(C)CC1CN(CCc2cccc(C(F)(F)F)c2)CCC1(O)c1cccc(O)c1 (stereo not given)"
  SYSTEM: "UniProtKB P42866"
  LABEL CLASS: 1
- COMPOUND: "COc1cccc(C2(O)CCN(C(=O)Cc3cc(C(F)(F)F)cc(C(F)(F)F)c3)CC2CN(C)C)c1 (stereo not given)"
  SYSTEM: "UniProtKB P42866"
  LABEL CLASS: -1
- COMPOUND: "CN(C)C[C@H]1CCCC[C@]1(O)c1cccc(O)c1"
  SYSTEM: "UniProtKB P42866"
  LABEL CLASS: 1
- COMPOUND: "COc1cccc(C2(O)CCN(C(=O)Cc3cccc(Cl)c3)CC2CN(C)C)c1 (stereo not given)"
  SYSTEM: "UniProtKB P42866"
  LABEL CLASS: -1
